- Test system: P. aeruginosa ATCC 27853
- Assay type: cell-based
- CONDITION_PARAMETERS: ATCC 27853, 24 h
Starred links: 1 amine or outer side, 2 acyl side, 3 side chain; linkers in the order of their positions; H or OH if unused. Non-standard residues stand in square brackets, D forms with d. Residues, ends and D or L forms follow the SMILES beside them. *: point of attachment. X3 = CC(=O)NCCNc1nc(NCCNC(C)=O)nc(N([C@@H](CC(C)C)C(=O)[*:2])[*:1])n1; X4 = CC(=O)NCCNc1nc(NCCNC(C)=O)nc(Oc2ccc(C(=O)*)cc2)n1
Entries and their MIC P. aeruginosa ATCC 27853

COMPOUND	MIC P. aeruginosa ATCC 27853
CC(=O)NCCNc1nc(NCCNC(C)=O)nc(Oc2ccc(C(=O)NCC(=O)N[C@@H](Cc3ccccc3)C(=O)N[C@@H](CC(C)C)C(N)=O)cc2)n1 [C, (Ac-EDA)2-TA-PHBA-GFL-NH2]	>64 µg/mL
CC(C)C[C@H](NC(=O)[C@H](CCCCN)NC(=O)[C@H](CC(C)C)NC(=O)[C@H](CCCCN)NC(=O)[C@@H](N)CC(C)C)C(=O)N[C@@H](CCCCN)C(N)=O [A, H-Leu-Lys-Leu-Lys-Leu-Lys-NH2] (H-LKLKLK-NH2)	>64 µg/mL
CC(C)C[C@H](NC(=O)[C@H](Cc1ccccc1)NC(=O)CNC(=O)c1ccc(Oc2nc(NCCNC(=O)[C@H](CCCCN)NC(=O)[C@H](CC(C)C)NC(=O)[C@H](CCCCN)NC(=O)[C@H](CC(C)C)NC(=O)[C@H](CCCCN)NC(=O)[C@@H](N)CC(C)C)nc(NCCNC(=O)[C@H](CCCCN)NC(=O)[C@H](CC(C)C)NC(=O)[C@H](CCCCN)NC(=O)[C@H](CC(C)C)NC(=O)[C@H](CCCCN)NC(=O)[C@@H](N)CC(C)C)n2)cc1)C(N)=O [B, H-[(LK)3-EDA]2-TA-PHBA-GFL-NH2]	32 µg/mL
CC(=O)NCCNc1nc(NCCNC(C)=O)nc(Oc2ccc(C(=O)N[C@@H](CC(C)C)C(=O)N[C@@H](CCCCN)C(=O)N[C@@H](CC(C)C)C(=O)N[C@@H](CCCCN)C(=O)N[C@@H](CC(C)C)C(=O)N[C@@H](CCCCN)C(N)=O)cc2)n1 [D, (Ac-EDA)2-TA-PHBA-(LK)3-NH2] (X4-LKLKLK-NH2)	>64 µg/mL

### Prompt What does the data say about its MIC P. aeruginosa ATCC 27853? Entry: CC(C)C[C@H](NC(=O)[C@H](CCCCN)NC(=O)[C@H](CC(C)C)NC(=O)[C@H](CCCCN)NC(=O)[C@H](CC(C)C)NC(=O)[C@H](CCCCN)NC(=O)[C@H](CC(C)C)NC(=O)[C@H](CCCCN)NC(=O)[C@H](CC(C)C)NC(=O)[C@H](CCCCN)NC(=O)[C@H](CC(C)C)NC(=O)[C@H](CCCCN)NC(=O)[C@H](CC(C)C)NC(=O)[C@H](CCCCN)NC(=O)[C@H](CC(C)C)NC(=O)[C@H](CCCCN)NC(=O)[C@@H](N)CC(C)C)C(=O)N[C@@H](CCCCN)C(N)=O [G, H-(Leu-Lys)9-NH2] (H-LKLKLKLKLKLKLKLKLK-NH2)
### Response >64 µg/mL

### Prompt What does the data say about its MIC P. aeruginosa ATCC 27853? Entry: CC(=O)NCCNc1nc(NCCNC(C)=O)nc(N[C@@H](CC(C)C)C(=O)N[C@@H](CCCCN)C(=O)N[C@@H](CC(C)C)C(=O)N[C@@H](CCCCN)C(=O)N[C@@H](CC(C)C)C(=O)N[C@@H](CCCCN)C(N)=O)n1 [E, (Ac-EDA)2-TA-(LK)3-NH2] (H-[X3]KLKLK-NH2)
### Response >64 µg/mL

# credit: paper PMC11172478
